experiment-notes: Evaluation of blood kinetics of compound in mice (mixed feed)
Type: in vivo
settings: male, mouse, po, 600 mg/kg; C57BL/6 mice, 0.3% mixed feed for 13 days, plasma, LC/MS; read-out: AUC0-24 h
measured-property: AUC(0-t) (µM·h)
State the answer as a number, implicitly in µM·h.

Briefly, AUC(0-t) measured for Cn1cccc1C(=O)N1CCN(C(=O)Nc2ccc(N3CCC(C(=O)N4CCOCC4)CC3)cc2)CC1 : 104

* * *

experiment-notes: Evaluation of blood kinetics of compound in mice (mixed feed)
Assay type: in vivo
settings: male, mouse, po, 600 mg/kg; C57BL/6 mice, 0.3% mixed feed for 13 days, plasma, LC/MS
Description: Mixed feed that contained 0.01, 0.1, or 0.3 mass % compound (1) were fed to 7-week-old C57BL/6 mice (male, Charles River Japan Ltd., weight: 20.7-23.7 g) for 13 days. Blood was collected from the face by using an animal lancet at 10 a.m., 1, 5, and 9 p.m. on day 12 and 10 a.m. on day 13. About 75 μL of blood was collected into a heparin-coated hematocrit tube. The concentration of the compound in the plasma after centrifugation was measured using liquid chromatography-mass spectrometry (LC/MS). […]
measured-property: Cmax (µM)
State the answer as a number, implicitly in µM.

Briefly, Cmax measured for Cn1cccc1C(=O)N1CCN(C(=O)Nc2ccc(N3CCC(C(=O)N4CCOCC4)CC3)cc2)CC1 : 6.41

* * *

experiment-notes: Evaluation of blood kinetics of compound in mice (mixed feed)
Assay type: in vivo
settings: male, mouse, po, 200 mg/kg; C57BL/6 mice, 0.1% mixed feed for 13 days, plasma, LC/MS; read-out: AUC0-24 h
measured-property: AUC(0-t) (µM·h)
State the answer as a number, implicitly in µM·h.

Briefly, AUC(0-t) measured for Cn1cccc1C(=O)N1CCN(C(=O)Nc2ccc(N3CCC(C(=O)N4CCOCC4)CC3)cc2)CC1 [compound (1)] : 38.3

Values from patent US11883410B2
